System: CHO-K1
Assay: Cytotoxicity against CHOK1 cells assessed as reduction in cell viability incubated for 24 hrs by MTT assay
Format: cell-based
Settings: Cricetulus griseus, CHO-K1, 24 h
quantity.name: IC50 (µg/mL)
The reply should be a number in µg/mL, with the unit left off.

// below: answered compounds
CO[C@@]12[C@H](COC(N)=O)C3=C(C(=O)C(C)=C(N)C3=O)N1C[C@@H]1N[C@@H]12
13.1
CCOC(=O)c1nc(C(C)C)sc1-c1ccc(C#N)cc1
40.5

Here is the next item to consider.
Quick one: IC50 of "CCOC(=O)c1nc(C2CCCCC2)sc1-c1ccc(C#N)cc1" ?
75.2
